target-desc: COX-2 activity in RAW 264.7 murine macrophage cell line (Mus musculus)
Construct: The macrophages were exposed to lipopolysaccharide and γ-interferon to induce COX-2; endogenous in cells
Sequence (Q05769 18-604): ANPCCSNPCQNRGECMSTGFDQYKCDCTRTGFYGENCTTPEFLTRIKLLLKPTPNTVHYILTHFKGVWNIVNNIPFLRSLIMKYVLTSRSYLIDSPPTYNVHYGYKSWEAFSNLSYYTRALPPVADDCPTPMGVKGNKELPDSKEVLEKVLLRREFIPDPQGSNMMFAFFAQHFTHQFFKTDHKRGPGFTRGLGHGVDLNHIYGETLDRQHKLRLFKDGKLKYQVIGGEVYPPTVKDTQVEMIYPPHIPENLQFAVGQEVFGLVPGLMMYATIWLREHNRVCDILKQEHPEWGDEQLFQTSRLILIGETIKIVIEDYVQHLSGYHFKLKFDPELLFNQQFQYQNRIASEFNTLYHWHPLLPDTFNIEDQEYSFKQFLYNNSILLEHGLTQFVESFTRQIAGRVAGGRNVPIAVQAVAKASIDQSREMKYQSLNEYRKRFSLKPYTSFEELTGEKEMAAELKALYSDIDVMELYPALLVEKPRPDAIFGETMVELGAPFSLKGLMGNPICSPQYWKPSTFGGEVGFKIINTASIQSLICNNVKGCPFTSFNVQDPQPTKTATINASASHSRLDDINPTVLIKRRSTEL
protocol-notes: Inhibition of COX-2 activity (PGD2 synthesis) in activated RAW264.7 macrophages
Format: cell-based
condition-parameters: read-out: IC50 for inhibition of COX-2 activity in RAW 264.7 macrophages
pIC50: −log10 of the molar value.
experimental-readout: pIC50

COc1ccc2c(c1)c(CC(=O)NCCOC(=O)c1cc(I)cc(I)c1I)c(C)n2C(=O)c1ccc(Cl)cc1 [Compound 5]: 5.46
CCCCC#CCSc1ccccc1OC(=O)CF [F-APHS]: 5.55

----------
target-desc: COX-2 (Homo sapiens, UniProt P35354)
Sequence (P35354 18-604): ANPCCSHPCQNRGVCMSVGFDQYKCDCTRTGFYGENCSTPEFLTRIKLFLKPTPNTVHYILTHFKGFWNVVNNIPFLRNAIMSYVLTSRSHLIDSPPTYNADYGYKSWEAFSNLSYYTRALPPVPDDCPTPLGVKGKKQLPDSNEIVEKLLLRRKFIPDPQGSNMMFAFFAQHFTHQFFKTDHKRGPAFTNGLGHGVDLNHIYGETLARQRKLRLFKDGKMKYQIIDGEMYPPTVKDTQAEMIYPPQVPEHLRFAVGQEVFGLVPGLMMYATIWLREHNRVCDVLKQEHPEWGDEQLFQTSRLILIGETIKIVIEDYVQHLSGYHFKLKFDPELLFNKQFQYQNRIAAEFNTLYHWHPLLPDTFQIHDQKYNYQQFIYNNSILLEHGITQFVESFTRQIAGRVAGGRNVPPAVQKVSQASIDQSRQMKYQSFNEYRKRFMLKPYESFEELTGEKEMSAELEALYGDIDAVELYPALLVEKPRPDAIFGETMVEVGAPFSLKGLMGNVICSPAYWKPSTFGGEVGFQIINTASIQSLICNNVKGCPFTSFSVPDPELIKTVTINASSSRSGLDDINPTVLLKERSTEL
protocol-notes: biochemical
experimental-readout: IC50

COc1ccc2c(c1)c(CC(=O)NCCNC(=O)c1ccc(F)cc1)c(C)n2C(=O)c1ccc(Cl)cc1: 103 nM
COc1ccc2c(c1)c(CC(=O)Nc1ccc(F)cc1)c(C)n2C(=O)c1ccc(Cl)cc1F: 100 nM

----------
Listing of recorded pIC50 by entry.
target-desc: COX-2 activity in RAW 264.7 murine macrophage cell line (Mus musculus)
Construct: The macrophages were exposed to lipopolysaccharide and γ-interferon to induce COX-2; endogenous in cells
protocol-notes: Inhibition of COX-2 activity (PGD2 synthesis) in activated RAW264.7 macrophages
Type: cell-based
condition-parameters: activated RAW 264.7 cells; read-out: IC50 for inhibition of PGD2 synthesis/production
pIC50: −log10 of the molar value.
experimental-readout: pIC50

O=C(c1ccccc1)c1ccc2n1CCC2C(=O)NCc1ccc(F)cc1 (centres unmarked): 6.70
COc1ccc2c(c1)c(CC(=O)NCCNC(=O)c1ccc(F)cc1)c(C)n2C(=O)c1ccc(Cl)cc1: 6.30

----------
target-desc: COX-2 (Homo sapiens, UniProt P35354)
protocol-notes: Inhibition of purified COX-2 by NSAID derivatives (species not stated)
Format: biochemical
condition-parameters: purified enzyme
experimental-readout: IC50 (µM)

CCCCC#CCSc1ccccc1OC(=O)CF: 4
